- Test system: primary human T-cells
- Measurement Notes: IL2 secretion measurements in CD3-stimulated T-cells
- Assay type: cell-based
- Test Context: Homo sapiens, T-cell; CD3 condition, IL2 secretion after 24 hours; read-out: Tcell IL2 CD3 EC50
Measured Quantity: EC50 (µM)
// note: answer is a bare numeric in µM

CC(C)(C)c1nncc(-c2cc3c(cc2F)S(=O)(=O)C[C@H](N)C(=O)N3Cc2ccc(-c3noc(C(F)(F)F)n3)cc2)n1 [Example 36]: 1.56
CC(C)(C)c1cc(-c2cc3c(cc2F)S(=O)(=O)C[C@H](N)C(=O)N3Cc2ccc(Cl)cc2)ncn1 [Example 4]: 2.24
CC(C)(C)c1cc(-c2cc3c(cc2F)S(=O)(=O)C[C@H](N)C(=O)N3Cc2ccc(-c3ccc(C(F)(F)F)cn3)cc2)cnn1 [Example 32]: 0.966
CC(C)Oc1cc(-c2cc3c(cc2F)S(=O)(=O)C[C@H](N)C(=O)N3Cc2ccc(Cl)cc2)cnn1 [Example 7]: 3.2
COc1ccc(-c2ccc(CN3C(=O)[C@@H](N)CS(=O)(=O)c4cc(F)c(-c5cncc(Cl)c5)cc43)cc2)cc1 [Example 27]: 0.997

Alright, here's another compound for you.
// EC50 lookup, compound = COc1ccc(-c2ccc(CN3C(=O)[C@@H](N)CS(=O)(=O)c4cc(F)c(-c5ccc(C(C)C)nc5)cc43)cc2)cc1 [Example 29] , result: 0.453
